assay.target: mouse Estrogen Receptor alpha (Era), Esr1 (gene 13982)
assay.details: NVS_NR_mERa: NovaScreen (NVS) Nuclear Receptor Binding Assay for mouse Estrogen Receptor alpha (Era) (AID 2283378);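 note: hit means loss of bound radioligand signal relative to DMSO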
Procedure: NVS_NR_mERa is a biochemical, single-readout assay that uses extracted gene-proteins in a cell-free assay. Measurements were taken 18 hours after chemical dosing in a 96-well plate.NVS_NR_mERa is one of one assay component(s) measured or calculated from the NVS_NR_mERa assay. […] This assay endpoint, NVS_NR_mERa, was analyzed in the positive analysis fitting direction relative to DMSO as the negative control and baseline of activity. […]
Results filed as inconclusive are left out. The source made the active and inactive calls. Rule for the calls: active = hit-call score of the fitted dose curve at least 0.9, where 1 is the maximum; inconclusive = response in the unintended direction; inactive = score below 0.9.
Valid outcomes are listed here; reply with one: active, inactive

Examples with answers:
compound: CCCCCCCCCCCCN1CCCC1=O
class.label: inactive
//
compound: CCc1nn(C2CCCCC2)c2cc(C3(C#N)CCC(C(=O)O)CC3)ccc12 (stereo unspecified)
class.label: inactive
//
compound: CC(=O)NC1(c2cccc(F)c2)CCN(CC[C@@]2(c3ccc(Cl)c(Cl)c3)CN(c3ccccc3)C(=O)CO2)CC1
class.label: inactive

# input # lookup: test call for C=C(C)C(=O)OCCC(F)(F)C(F)(F)C(F)(F)C(F)(F)C(F)(F)C(F)(F)F
# output inactive

# input Would you kindly repeat that for OC1CCC(C2CCCCC2)CC1 (stereo unspecified) ?
# output inactive

# input One more compound: C[C@@H]1C[C@H]2[C@@H]3CCC4=CC(=O)C=C[C@]4(C)[C@@]3(F)[C@@H](O)C[C@]2(C)[C@@]1(O)C(=O)COP(=O)(O)O
# output inactive

====

assay.target: Retinoic acid receptor alpha (Homo sapiens) (UniProt P10276)
Sequence (P10276 whole entry, looked up): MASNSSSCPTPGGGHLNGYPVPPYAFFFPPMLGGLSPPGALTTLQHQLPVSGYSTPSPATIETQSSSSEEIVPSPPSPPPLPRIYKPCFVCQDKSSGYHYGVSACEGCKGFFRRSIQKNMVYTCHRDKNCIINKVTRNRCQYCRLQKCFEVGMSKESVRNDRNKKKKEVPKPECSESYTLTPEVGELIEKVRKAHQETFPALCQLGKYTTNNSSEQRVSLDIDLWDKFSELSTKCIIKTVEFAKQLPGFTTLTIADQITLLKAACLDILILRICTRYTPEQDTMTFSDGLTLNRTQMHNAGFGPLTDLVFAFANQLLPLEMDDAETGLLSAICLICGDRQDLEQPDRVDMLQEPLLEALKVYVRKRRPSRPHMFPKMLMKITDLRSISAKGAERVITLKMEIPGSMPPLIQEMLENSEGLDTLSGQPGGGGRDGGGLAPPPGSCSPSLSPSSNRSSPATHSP
assay.details: ATG_DR5_RAR_CIS: Attagene CIS-FACTORIAL HepG2 Assay for human Retinoic Acid Receptor Alpha (RARE), DR5 submotif (AID 2282934)
condition.summary: HepG2 Attagene cis-factorial RARE DR5 reporter, mRNA; actives raise or lower the signal
Active and inactive are the calls of the source. Rule for the calls: active = hit-call score of the fitted dose curve at least 0.9, where 1 is the maximum; inactive = score below 0.9.
Just give me one of these, please: YES (active), NO (inactive)

# input In this assay, the call recorded for NC(=O)N(O)[C@@H]1C=C[C@H](Oc2cccc(Oc3ccc(F)cc3)c2)C1 was what?
# output NO

# input What would you report for CCCCCCCCC(=O)O ?
# output NO

# input What do we get for CC(C)(C)c1ccc(O)c(C(C)(C)C)c1 ?
# output NO

# input // next record CCc1nn(C2CCCCC2)c2cc(C3(C#N)CCC(C(=O)O)CC3)ccc12 (stereo unspecified)
# output YES

# input Query Cc1oc(-c2ccccc2)nc1CCOc1ccc(C[C@H](Nc2ccccc2C(=O)c2ccccc2)C(=O)O)cc1 next
# output NO

# input Would you kindly repeat that for CC(C)CCCCCCOC(=O)CCCCC(=O)OCCCCCCC(C)C ?
# output NO

====

Read-out: Glutathione S-Transferase (GSTA2), GSTA2 (gene 2939)
assay.details: LTEA_HepaRG_GSTA2: Life Technologies and Expression Analysis (LTEA) Assay for Glutathione S-Transferase (GSTA2) using HepaRG (AID 2283497)
condition.summary: mRNA level, 48 h; actives raise or lower the signal
Calls of active or inactive are those of the source. Rule for the calls: active = hit-call score of the fitted dose curve at least 0.9, where 1 is the maximum; inactive = score below 0.9.
recorded.metric: AC50

Worked cases, AC50 given:
molecule: Cc1cc(CCN2CCN(c3nsc4ccccc34)CC2)cc2c1NC(=O)CC2(C)C
AC50: 81.9 µM (active)
//
molecule: C[C@@H]1C[C@H]2[C@@H]3CCC4=CC(=O)C=C[C@]4(C)[C@@]3(F)[C@@H](O)C[C@]2(C)[C@@]1(O)C(=O)COP(=O)(O)O
AC50: inactive
//
molecule: c1ccc2cc3c(ccc4ccccc43)cc2c1
AC50: 8.52 µM (active)
//
molecule: CC(O)CO (configuration not stated)
AC50: inactive

Quick request: AC50 for each listed item, please.
1. CCc1ccc(CCOc2ccc(CC3SC(=O)NC3=O)cc2)nc1 (configuration not stated)
2. c1ccc2c(c1)ccc1ccccc12

# output
["78.1 µM (active)", "inactive"]

Can you give me AC50 for all of these, one by one?
1. CN1CCN(c2ccccc2/C=C2\SCCN(c3ccc(Cl)c(Cl)c3)C2=O)CC1
2. CC(C)(C)CC(C)(C)c1ccc(O)c(-n2nc3ccccc3n2)c1
3. COc1ccc([N+](=O)[O-])cc1N
4. CCCCCCCCOC(=O)CCCCCCCCC(=O)OCCCCCCCC
5. CCOC(=O)CC(O)(CC(=O)OCC)C(=O)OCC
6. CC1=C(/C=C/C(C)=C/C=C/C(C)=C/C(=O)O)C(C)(C)CCC1

# output
inactive
inactive
inactive
inactive
inactive
5.61 µM (active)
